For RBP4 (Homo sapiens, UniProt P02753), measured pIC50 is reported for the entries below.
Friendly reminder that pIC50 comes from taking -log10 of the concentration in mol/L.

Solved cases below.
chemicalSmiles | pIC50
O=C(O)Cc1nc(-c2cc(F)cc(C(F)(F)F)c2)co1 | 7.14
O=C(O)Cc1csc(-c2cc(Br)cc(C(F)(F)F)c2)n1 | 7.30
FC(F)(F)c1cc(-c2nc(Cc3nn[nH]n3)cs2)cc(C(F)(F)F)c1 | 7.01

// lookup pIC50 for O=C(O)Cc1coc(-c2ccc(F)c(C(F)(F)F)c2)n1
6.14
